- System: Human alphaherpesvirus 3
- ASSAY PROTOCOL: Antiviral activity against thymidine kinase deficient Varicella zoster virus 07-1 infected in human HEL cells assessed as reduction in virus-induced cytopathogenic effect measured after 3 days coulter counter method
- Format: functional, organism-based
- DETAILS: Human alphaherpesvirus 3, 07-1, HEL, 72 h
Provide the reported EC50 of each item.
One number for each entry, in µM.

Field: example entries. Status: answers known.
IN: Sample "O=c1[nH]c(=O)n([C@H]2C[C@H](O)[C@@H](CO)O2)cc1/C=C/Br" — what was its EC50?
OUT: 12

IN: Sample "CCCCCc1ccc(-c2oc3nc(=O)n([C@H]4C[C@H](OC(C)=O)[C@@H](COC(C)=O)O4)cc3c2C#CCCO)cc1" — what was its EC50?
OUT: 13

IN: Sample "CCCCCc1ccc(C#Cc2c(-c3ccc(CCCCC)cc3)oc3nc(=O)n([C@H]4C[C@H](OC(C)=O)[C@@H](COC(C)=O)O4)cc23)cc1" — what was its EC50?
OUT: 8.94

Then this molecule:
IN: Sample "CC(=O)OCC#Cc1c(-c2ccc(C)cc2)oc2nc(=O)n([C@H]3C[C@H](OC(C)=O)[C@@H](COC(C)=O)O3)cc12" — what was its EC50?
OUT: 100

###

- Tested on: HEL
- ASSAY PROTOCOL: Cytotoxicity against human HEL cells assessed as reduction in cell growth incubated for 3 days by coulter counter method
- Format: cell-based
- DETAILS: 72 h, time 3 day
READOUT NAME: CC50 (µM)
Give bare numbers, in µM.

IN: Sample "CCCCCc1ccc(-c2oc3nc(=O)n([C@H]4C[C@H](OC(C)=O)[C@@H](COC(C)=O)O4)cc3c2C#CCO)cc1" — what was its CC50?
OUT: 3.8

IN: Sample "CC(=O)OC[C@H]1O[C@@H](n2cc3c(C#CC4(O)c5ccccc5-c5ccccc54)c(-c4ccc(C)cc4)oc3nc2=O)C[C@@H]1OC(C)=O" — what was its CC50?
OUT: 2.36

Further cases:
IN: Sample "CC(=O)OC[C@H]1O[C@@H](n2cc3c(C#Cc4ccc(C)cc4)c(-c4ccc(C)cc4)oc3nc2=O)C[C@@H]1OC(C)=O" — what was its CC50?
OUT: 8.77

###

- Test system: Human alphaherpesvirus 3
- ASSAY PROTOCOL: Antiviral activity against thymidine kinase deficient Varicella zoster virus 07-1 infected in human HEL cells assessed as reduction in virus-induced cytopathogenic effect measured after 3 days coulter counter method
- Format: functional, organism-based
- DETAILS: Human alphaherpesvirus 3, 07-1, HEL, 72 h
READOUT NAME: EC50 (µM)
One number for each entry, in µM.

IN: Sample "CC(=O)OC[C@H]1O[C@@H](n2cc3c(C#Cc4ccc(C)cc4)c(-c4ccc(C)cc4)oc3nc2=O)C[C@@H]1OC(C)=O" — what was its EC50?
OUT: 10.9

IN: Sample "CC(=O)OC[C@H]1O[C@@H](n2cc3c(C#CCCCCn4c5ccccc5c5ccccc54)c(-c4ccc(C)cc4)oc3nc2=O)C[C@@H]1OC(C)=O" — what was its EC50?
OUT: 13.2

Then this compound:
IN: Sample "CC(=O)OC[C@H]1O[C@@H](n2cc3c(C#CC4(O)c5ccccc5-c5ccccc54)c(-c4ccc(C)cc4)oc3nc2=O)C[C@@H]1OC(C)=O" — what was its EC50?
OUT: 7.61

###

- ASSAY PROTOCOL: Selectivity index, ratio of CC50 for human HEL cells to EC50 for thymidine kinase deficient Varicella zoster virus 07-1 infected in human HEL cells
- Assay type: toxicity, cell-based
- DETAILS: read-out: Ratio CC50/EC50
READOUT NAME: selectivity ratio
Give bare numbers.

IN: Sample "CCCCCc1ccc(C#Cc2c(-c3ccc(CCCCC)cc3)oc3nc(=O)n([C@H]4C[C@H](OC(C)=O)[C@@H](COC(C)=O)O4)cc23)cc1" — what was its selectivity ratio?
OUT: 11

###

- ASSAY PROTOCOL: Cytotoxicity against human HEL cells assessed as concentration required to cause visible alteration in cell morphology incubated for 3 days by coulter counter method
- Assay type: cell-based
- DETAILS: time 3 day
READOUT NAME: MCC at 72 h (µM)
Give bare numbers, in µM.

Field: example entries. Status: answers known.
IN: Sample "CCCCCc1ccc(C#Cc2c(-c3ccc(CCCCC)cc3)oc3nc(=O)n([C@H]4C[C@H](OC(C)=O)[C@@H](COC(C)=O)O4)cc23)cc1" — what was its MCC at 72 h?
OUT: 100

IN: Sample "CCCCCc1ccc(-c2oc3nc(=O)n([C@H]4C[C@H](OC(C)=O)[C@@H](COC(C)=O)O4)cc3c2C#Cc2ccc(C)cc2)cc1" — what was its MCC at 72 h?
OUT: 100

IN: Sample "CCCCCc1ccc(-c2oc3nc(=O)n([C@H]4C[C@H](OC(C)=O)[C@@H](COC(C)=O)O4)cc3c2C#CCO)cc1" — what was its MCC at 72 h?
OUT: 100

IN: Sample "CC(=O)OC[C@H]1O[C@@H](n2cc3c(C#Cc4ccc(C)cc4)c(-c4ccc(C)cc4)oc3nc2=O)C[C@@H]1OC(C)=O" — what was its MCC at 72 h?
OUT: 60

I would be grateful if you could provide MCC at 72 h for each of the following entries.
1. CC(=O)OC[C@H]1O[C@@H](n2cc3c(C#CCCN4C(=O)c5ccccc5C4=O)c(-c4ccc(C)cc4)oc3nc2=O)C[C@@H]1OC(C)=O
2. CC(=O)OC[C@H]1O[C@@H](n2cc3c(C#CC4(O)c5ccccc5-c5ccccc54)c(-c4ccc(C)cc4)oc3nc2=O)C[C@@H]1OC(C)=O
3. CCCCCc1ccc(-c2oc3nc(=O)n([C@H]4C[C@H](OC(C)=O)[C@@H](COC(C)=O)O4)cc3c2C#CCCO)cc1
4. CCCCCc1ccc(C#Cc2c(-c3ccc(C)cc3)oc3nc(=O)n([C@H]4C[C@H](OC(C)=O)[C@@H](COC(C)=O)O4)cc23)cc1
5. CC(=O)OC[C@H]1O[C@@H](n2cc3c(C#CCCCCn4c5ccccc5c5ccccc54)c(-c4ccc(C)cc4)oc3nc2=O)C[C@@H]1OC(C)=O

OUT:
1: 100; 2: 100; 3: 100; 4: 20; 5: 100

###

- Test system: Human alphaherpesvirus 3
- ASSAY PROTOCOL: Antiviral activity against thymidine kinase deficient Varicella zoster virus 07-1 infected in human HEL cells assessed as reduction in virus-induced cytopathogenic effect measured after 3 days coulter counter method
- Format: functional, organism-based
- DETAILS: Human alphaherpesvirus 3, 07-1, HEL, 72 h
READOUT NAME: EC50

Field: example entries. Status: answers known.
IN: Form entry - test system: Human alphaherpesvirus 3; read-out: EC50; molecule: "CC(=O)OC[C@H]1O[C@@H](n2cc3c(C#CCO)c(-c4ccc(C)cc4)oc3nc2=O)C[C@@H]1OC(C)=O"
OUT: > 100 µM

IN: Form entry - test system: Human alphaherpesvirus 3; read-out: EC50; molecule: "CCCCCc1ccc(-c2oc3nc(=O)n([C@H]4C[C@H](OC(C)=O)[C@@H](COC(C)=O)O4)cc3c2C#Cc2ccc(C)cc2)cc1"
OUT: > 20 µM

Then this molecule:
IN: Form entry - test system: Human alphaherpesvirus 3; read-out: EC50; molecule: "CC(=O)OC[C@H]1O[C@@H](n2cc3c(C#CCCO)c(-c4ccc(C)cc4)oc3nc2=O)C[C@@H]1OC(C)=O"
OUT: > 100 µM

###

- ASSAY PROTOCOL: Cytotoxicity against human HEL cells assessed as concentration required to cause visible alteration in cell morphology incubated for 3 days by coulter counter method
- Type: cell-based
- DETAILS: time 3 day
READOUT NAME: MCC at 72 h

IN: Sample "CC(=O)OC[C@H]1O[C@@H](n2cc3c(C#CCO)c(-c4ccc(C)cc4)oc3nc2=O)C[C@@H]1OC(C)=O" — what was its MCC at 72 h?
OUT: > 100 µM

IN: Sample "Nc1nc2c(ncn2COCCO)c(=O)[nH]1" — what was its MCC at 72 h?
OUT: > 440 µM

IN: Sample "COCC#Cc1c(-c2ccc(C)cc2)oc2nc(=O)n([C@H]3C[C@H](OC(C)=O)[C@@H](COC(C)=O)O3)cc12" — what was its MCC at 72 h?
OUT: > 100 µM

I would be grateful if you could provide MCC at 72 h for each of the following entries.
1. CC(=O)OC[C@H]1O[C@@H](n2cc3c(C#CCCO)c(-c4ccc(C)cc4)oc3nc2=O)C[C@@H]1OC(C)=O
2. O=c1[nH]c(=O)n([C@H]2C[C@H](O)[C@@H](CO)O2)cc1/C=C/Br
3. CC(=O)OCC#Cc1c(-c2ccc(C)cc2)oc2nc(=O)n([C@H]3C[C@H](OC(C)=O)[C@@H](COC(C)=O)O3)cc12

OUT:
> 100 µM
> 300 µM
> 100 µM
